Assay System: HLA-A*02:01 (Homo sapiens, UniProt P04439, D140Y/D185E/D98H/E176V/E277Q/G131W/G231S/I119V/I121R/I166T/I218V/L300P/L318F/N151K/N90K/P208A/P217A/Q86G/Q94H/R138H/R169H/T345S)
Run Description: MHC binding assay: UV-ligand exchange with β2m ELISA (peptide exchange yield)
Test Settings: MHC class I binding score; binding to HLA-A*02:01 ranged by peptide exchange yield (UV-ligand exchange, β2m ELISA)
Measured Endpoint: Peptide Exchange

INSERT INTO results (substance, measured_endpoint, reading) VALUES
  ('24 (AMAGDVVYA; listed as Homo sapiens) [compound 24]', 'Peptide Exchange', '″+++″ (≥50 = +++)'),
  ('226 (AMNISVPQV; listed as Homo sapiens) [compound 226]', 'Peptide Exchange', '″+++″ (≥50 = +++)'),
  ('51 (FLVEAPHDWDL; listed as Homo sapiens) [compound 51]', 'Peptide Exchange', '″++++″ (≥75% = ++++)'),
  ('52 (FLVETGFLHV; listed as Homo sapiens) [compound 52]', 'Peptide Exchange', '″++++″ (≥75% = ++++)'),
  ('249 (LLPTGVFQV; listed as Homo sapiens) [compound 249]', 'Peptide Exchange', '″+++″ (≥50 = +++)'),
  ('107 (ILYNLYDLL; listed as Homo sapiens) [compound 107]', 'Peptide Exchange', '″+++″ (≥50 = +++)'),
  ('134 (MLLEHGITLV; listed as Homo sapiens) [compound 134]', 'Peptide Exchange', '″++++″ (≥75% = ++++)'),
  ('48 (FLSPQQPPLL; listed as Homo sapiens) [compound 48]', 'Peptide Exchange', '″+++″ (≥50 = +++)');
